Catalogue of GI50 readings, one per entry.
Test system: UACC-257
Test: NCI tumour cell line growth inhibition, 48 h
Calls of active or inactive are those of the source. Rule as the data show it: active = GI50 up to about 1.1 µM and inactive = higher.
quantity measured: GI50

- molecule: "C=CCn1c(=O)c2ccccc2[n+]2c(-c3cccc([N+](=O)[O-])c3)csc12"
  quantity measured: "GI50"
  meas value: "36.3 µM (inactive)"
- molecule: "O=C1CCC2(c3ccccc3)Nc3ccccc3N12 (stereo not given)"
  quantity measured: "GI50"
  meas value: "> 100 µM (inactive)"
- molecule: "CC(C)C(=O)Oc1cc2c(=O)oc3c(OC(=O)C(C)C)c(OC(=O)C(C)C)cc4c(=O)oc(c1OC(=O)C(C)C)c2c34"
  quantity measured: "GI50"
  meas value: "> 100 µM (inactive)"
- molecule: "Cn1c2ccc([N+](=O)[O-])cc2c(=O)n1Cc1ccccc1F"
  quantity measured: "GI50"
  meas value: "42.4 µM (inactive)"
- molecule: "CSc1nc(O)c(C#N)c(-c2ccc(Cl)cc2)n1"
  quantity measured: "GI50"
  meas value: "> 100 µM (inactive)"
- molecule: "O=C1CSC(c2cc3cc(Br)ccc3nc2Cl)N1c1ccc(Cl)cc1 (stereo not given)"
  quantity measured: "GI50"
  meas value: "14.8 µM (inactive)"
- molecule: "Cc1cc(=O)n2c3c(c4c(cc13)c(CN(C)C)cc(=O)n4C)OC2"
  quantity measured: "GI50"
  meas value: "21.9 µM (inactive)"
- molecule: "Cc1cc(C(=O)NCCN(C)C)c2nc3ccccc3cc2c1"
  quantity measured: "GI50"
  meas value: "2.07 µM (inactive)"
- molecule: "Clc1ccc(CCNCCNC2(c3cc4ccccc4s3)CCCCC2)cc1Cl"
  quantity measured: "GI50"
  meas value: "1.81 µM (inactive)"
- molecule: "COC(=O)[C@@H](Cc1ccccc1)N1O[C@]12CCCC[C@@H]2NC(=O)OC(C)(C)C (stereo not given in full)"
  quantity measured: "GI50"
  meas value: "36.4 µM (inactive)"

----------
Test system: U-251
Experiment: NCI tumour cell line growth inhibition, 48 h
Active and inactive are the calls of the source. Cut-off read from the data, not from the text of the source: active = GI50 up to about 1.1 µM and inactive = higher.
Collected GI50 values appear next to each entry.

- smiles text: "O=C(O)c1cc(C(=O)O)nc(C(=O)O)c1"
  GI50: "> 100 µM (inactive)"
- smiles text: "N#Cc1c(N)nc2[nH]nc(N)c2c1-c1ccc(Cl)cc1"
  GI50: "19.3 µM (inactive)"
- smiles text: "CCOP(=O)(OCC)/C(C#N)=C/c1ncc[nH]1"
  GI50: "> 100 µM (inactive)"
- smiles text: "O=C(/C=C/c1ccc(OCc2ccccc2)cc1)NCc1ccc(C(=O)NCc2ccccc2)cc1"
  GI50: "> 100 µM (inactive)"
- smiles text: "Cc1cc(C)c(O)c(CN2CCN(C(C)C)CCN(C(C)C)CC2)c1"
  GI50: "37 µM (inactive)"
- smiles text: "C=CCCCCn1c2ccccc2c2c(C)c3c[n+](C)ccc3c(C)c21"
  GI50: "0.197 µM (active)"

----------
Test system: A549
Assay: NCI tumour cell line growth inhibition, 48 h
Calls of active or inactive are those of the source. Cut-off read from the data, not from the text of the source: active = GI50 up to about 1.1 µM and inactive = higher.
Possible outcomes: active, inactive

- compound: "CC1=C2C3OC(=O)C(C)C3CCC2(C)C=C/C1=N\\c1ccccc1 (stereo unspecified)"
  assigned category: "inactive"
- compound: "COc1cc(/C=C/c2ccc(/C=C/c3cc(OC)c(OC)c(OC)c3)cc2)cc(OC)c1OC"
  assigned category: "inactive"
- compound: "Cc1cc(C(O)CNC(C)CCn2cnc3c2c(=O)n(C)c(=O)n3C)ccc1O (stereo unspecified)"
  assigned category: "inactive"
- compound: "CC(C)(C)c1cc2c3c(c1)c(=O)c1cccc4c(O)c5cccc(c2=O)c5c-3c41"
  assigned category: "inactive"
- compound: "COc1ccc(C)cc1-c1ccc(-c2cc(C)ccc2OC)o1"
  assigned category: "inactive"
- compound: "Nc1c(-c2ccc(Cl)c(Cl)c2)c2ccc([N+](=O)[O-])cc2c(=O)n1-c1nc2ccccc2s1"
  assigned category: "active"
- compound: "CC1=C2CCCC2C/C(=N/Nc2ccc([N+](=O)[O-])cc2[N+](=O)[O-])CC1 (stereo unspecified)"
  assigned category: "inactive"
- compound: "CO/C=C(\\Br)c1ccc2c(c1)OCO2"
  assigned category: "inactive"
- compound: "CNC(=O)/C(C#N)=C(\\N)N1CCCC1"
  assigned category: "inactive"
- compound: "CN(C)C(=S)/N=c1\\ssc(=S)n1Cc1cccnc1"
  assigned category: "inactive"
- compound: "O=C(CCN1CCOCC1)Nc1ccc(F)cc1F"
  assigned category: "inactive"

----------
Tested on: NCI-H226
Assay: NCI tumour cell line growth inhibition, 48 h
The source made the active and inactive calls. Rule as the data show it: active = GI50 up to about 1.1 µM and inactive = higher. Square brackets hold non-standard residues; d marks the D form. Peptide text beside a SMILES is read from it. pGlu = O=C1CC[C@@H](C(=O)O)N1; Thz = O=C(O)[C@@H]1CSCN1
Possible outcomes: YES = active, NO = inactive

- compound: "COc1cc2c(ccc3c4cc(OC)c(OC)cc4c[n+](C)c23)cc1O"
  assigned category: "NO"
- compound: "COC(=O)CN1SC2(SC13C(C)(C)C(=O)C3(C)C)C(C)(C)C(=O)C2(C)C"
  assigned category: "NO"
- compound: "Nc1c(-c2ccc(Cl)c(Cl)c2)c2ccc([N+](=O)[O-])cc2c(=O)n1-c1nc2ccccc2s1"
  assigned category: "YES"
- compound: "CO/C(=N\\N=C\\c1ccccc1F)c1ccncc1"
  assigned category: "NO"
- compound: "CN(C(=O)Nc1ccc(Cl)c(Cl)c1)C1CCCC[C@@H]1N1CCCC1 (stereo partly specified)"
  assigned category: "YES"
- compound: "COc1ccc2oc(=O)c(CC=C(C)C)c(O)c2c1C"
  assigned category: "NO"
- compound: "CC(=O)Nc1ccc(C(=O)NN2C(=O)C(Cl)/C2=C/c2ccco2)cc1 (stereo unspecified)"
  assigned category: "NO"
- compound: "COC(=O)[C@@]12C3=NO[C@]1(C(=O)OC)C(O[Si](C)(C)C(C)(C)C)[C@@H](OC(C)=O)[C@@H](OC(C)=O)[C@@H]2[C@@H](OCc1ccccc1)CC3 (stereo partly specified)"
  assigned category: "NO"
- compound: "C[C@]12OC(=O)[C@]3(O)CC[C@H]4[C@@H](C[C@@H](O)[C@@]5(Cl)CC=CC(=O)[C@]45C)[C@]45OCC6C(=O)O[C@@H]1C[C@@]6(C)[C@H](C4=O)[C@@]32O5 (stereo partly specified)"
  assigned category: "NO"
- compound: "C=C[C@H]1C=Cc2c(OC)cccc2[C@@H]1COP1(=S)NC(C)C(c2ccccc2)O1 (stereo partly specified)"
  assigned category: "NO"
- compound: "C=C1C2CCCC1C1(S(C)(=O)=O)CCCCC21O (stereo unspecified)"
  assigned category: "NO"
- compound: "O=C1CC[C@@H](C(=O)N2CSC[C@H]2C(=O)O)N1 [PIDOTIMOD] ([pGlu]-[Thz]-OH)"
  assigned category: "NO"
- compound: "C=CCCN1CCc2c([nH]c3ccccc23)C1C(=O)O (stereo unspecified)"
  assigned category: "NO"
- compound: "C=C1CC2(CCS(=O)(=O)c3ccccc32)OC1=O (stereo unspecified)"
  assigned category: "NO"
- compound: "CC(=O)c1c2c(cc3c1CC1(Cc4cc5c(cc4C1)C(=O)CCC5)C3)CCCC2 (stereo unspecified)"
  assigned category: "NO"
- compound: "Brc1cccc(/N=N/N2CCCC2)c1"
  assigned category: "NO"
- compound: "O=C(O)C1CC(c2ccccc2)=NN1c1ccccc1 (stereo unspecified)"
  assigned category: "NO"
- compound: "CCOC(=O)NN(C(=O)OCC)c1ccc(/N=N/c2ccc(OC)cc2)n1C"
  assigned category: "NO"
- compound: "CC(=O)NC1=C(NCCO)C(=O)c2ccccc2C1=O"
  assigned category: "NO"
- compound: "CCOC(=O)c1cc(Br)c(-c2cc(C)no2)[nH]1"
  assigned category: "NO"
- compound: "CC(N)C(=O)OCN1C(=O)C2C3C=CC(C2C1=O)C1C2C(=O)N(COC(=O)C(C)N)C(=O)C2C31 (stereo unspecified)"
  assigned category: "NO"
- compound: "[N-]=[N+]=Nc1ccc(S(=O)(=O)Oc2cc(OS(=O)(=O)c3ccc(N=[N+]=[N-])cc3)cc(OS(=O)(=O)c3ccc(N=[N+]=[N-])cc3)c2)cc1"
  assigned category: "NO"
- compound: "CCOC(=O)Cc1nc2nn(Cc3ccccc3)cc2c(=O)[nH]1"
  assigned category: "NO"
- compound: "CC(C)(C)C1=CC(=NNC(=S)NCc2ccccc2)C=C(C(C)(C)C)C1=O"
  assigned category: "NO"
- compound: "N#Cc1ccccc1Nc1ccccc1S"
  assigned category: "NO"
- compound: "CCC(CC)C(=O)OC[n+]1cccc(-c2c(COC(=O)NC(C)C)c(COC(=O)NC(C)C)c3n2CCC3)c1"
  assigned category: "NO"
- compound: "CC1(C)SCc2nc3ncccc3n21"
  assigned category: "NO"
- compound: "CNC(=O)Nc1ccccc1"
  assigned category: "NO"
- compound: "COc1cc(Br)c(/C=N\\c2cccc3ccc(OS(=O)(=O)c4cccc([N+](=O)[O-])c4)cc23)cc1OC"
  assigned category: "NO"
- compound: "O=C1/C(=C\\c2ccc([N+](=O)[O-])o2)SC2NC(COc3ccc(Cl)cc3)=NN12 (stereo unspecified)"
  assigned category: "NO"
- compound: "Cc1cc(C(=O)NCCN(C)C)c2nc3ccccc3cc2c1"
  assigned category: "NO"
- compound: "CCCCCC[C@H]([C@H](C)O)n1cnc2c(N)ncnc21"
  assigned category: "NO"
- compound: "COc1cc(NC=C2C(=O)OC(C)(C)OC2=O)c(OC)c(C)c1OC"
  assigned category: "NO"
- compound: "Cc1ccc(N2C(=O)C(O)=C(C(=O)C(C)(C)C)C2c2ccc([N+](=O)[O-])cc2)cc1 (stereo unspecified)"
  assigned category: "NO"
- compound: "CC[C@H](O)[C@H](C)C=C1SCCCS1"
  assigned category: "NO"
- compound: "CCN(CC)Cc1cc(Nc2c3ccccc3nc3c4ccccc4n(C)c23)ccc1O"
  assigned category: "NO"
- compound: "N#Cc1ccc(Oc2nc3ccccc3nc2C(=O)O)cc1"
  assigned category: "NO"
- compound: "COc1cccc(/C(Cl)=C(\\C=O)c2cccc(OC)c2)c1"
  assigned category: "NO"
- compound: "CC(=O)OCCOCNC(=S)N/N=C(\\C)c1cnccn1"
  assigned category: "NO"
- compound: "CCOc1ccc(NC(=O)CC2C(=O)Nc3ccccc3S2(=O)=O)cc1 (stereo unspecified)"
  assigned category: "NO"
- compound: "Cc1cc(S(=O)(=O)Nc2nnc3cc(C(F)(F)F)cc(C)n23)c(S)cc1Cl"
  assigned category: "NO"
